Value source: ChEMBL document CHEMBL3098071

# Test system: Trichophyton rubrum
# Assay summary: Antimicrobial activity against Trichophyton rubrum by broth microdilution method
# Format: functional
Recorded metric: MIC80 (µg/mL)
Enter your answer as a number in µg/mL; do not include the unit.

# Compound, Unit annotation, Assay result
measured = [
    ("COc1ccc(-c2nnc(SCCCN3CCN(CC(O)(Cn4cncn4)c4ccc(F)cc4F)CC3)o2)cc1 (configuration not stated)", "µg/mL", 0.25),
    ("O=[N+]([O-])c1ccc(-c2nnc(SCCCN3CCN(CC(O)(Cn4cncn4)c4ccc(F)cc4F)CC3)o2)cc1 (configuration not stated)", "µg/mL", 1),
]

Give MIC80 for the following compound: COc1ccccc1-c1nnc(SCCCN2CCN(CC(O)(Cn3cncn3)c3ccc(F)cc3F)CC2)o1 (configuration not stated)
0.25

Give MIC80 for the following compound: OC(CN1CCN(CCCSc2nnc(-c3ccc(Br)cc3)o2)CC1)(Cn1cncn1)c1ccc(F)cc1F (configuration not stated)
0.25

Give MIC80 for the following compound: OC(CN1CCN(CCCSc2nnc(-c3ccc(F)cc3)o2)CC1)(Cn1cncn1)c1ccc(F)cc1F (configuration not stated)
0.0625

Give MIC80 for the following compound: OC(CN1CCN(CCCSc2nnc(-c3ccc(Cl)cc3)o2)CC1)(Cn1cncn1)c1ccc(F)cc1F (configuration not stated)
0.25

Give MIC80 for the following compound: OC(CN1CCN(CCCSc2nnc(-c3cccc(Cl)c3)o2)CC1)(Cn1cncn1)c1ccc(F)cc1F (configuration not stated)
0.0625
